Target: T1, human EphA2 (human, UniProt P29317 25-534, limits assumed)
T1 construct: also called Eph receptor tyrosine kinase A2
T1 sequence (P29317 25-534 limits assumed): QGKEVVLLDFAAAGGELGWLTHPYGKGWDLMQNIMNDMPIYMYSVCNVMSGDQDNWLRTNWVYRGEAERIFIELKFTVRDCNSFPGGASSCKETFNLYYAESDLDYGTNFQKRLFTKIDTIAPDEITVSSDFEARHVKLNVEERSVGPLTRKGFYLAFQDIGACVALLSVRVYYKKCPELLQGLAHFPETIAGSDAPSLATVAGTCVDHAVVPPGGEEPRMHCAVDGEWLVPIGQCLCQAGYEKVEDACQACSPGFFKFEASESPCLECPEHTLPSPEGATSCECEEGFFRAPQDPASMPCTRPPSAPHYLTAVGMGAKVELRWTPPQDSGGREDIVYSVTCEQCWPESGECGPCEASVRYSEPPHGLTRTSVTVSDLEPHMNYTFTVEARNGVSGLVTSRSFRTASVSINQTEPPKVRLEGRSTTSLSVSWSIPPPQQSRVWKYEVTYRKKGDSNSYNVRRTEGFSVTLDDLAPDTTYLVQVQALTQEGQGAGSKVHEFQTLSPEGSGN
Test: fluorescence polarisation competition with tracer BCY90, human EphA2, mean of 8
Starred links: 1 amine or outer side, 2 acyl side, 3 side chain; linkers in the order of their positions; H or OH if unused. Positions of bridges follow the written chain, without caps; N, C: chain ends. Non-standard residues stand in square brackets, D forms with d. No end group written: not given here. TATA = O=C(CC[*:1])N1CN(C(=O)CC[*:2])CN(C(=O)CC[*:3])C1; Dip = N[C@H](C(=O)O)C(c1ccccc1)c1ccccc1; 1Nal = N[C@@H](Cc1cccc2ccccc12)C(=O)O; d1Nal = N[C@H](Cc1cccc2ccccc12)C(=O)O; Hyp = O=C(O)[C@@H]1C[C@@H](O)CN1; hArg = N=C(N)NCCCC[C@H](N)C(=O)O; NMeA = CN[C@@H](C)C(=O)O
Recorded Ki by entry
REPORTED_METRIC: Ki (nM)

[[record]]
binder = "[NMeA][hArg]DC[Hyp]LVNPLCLEP[dD]WTC-NH2 (linker 4-11-18 via TATA, Bicyclic peptide cyclised with TATA) [BCY13122]"
reported_metric = "Ki"
unit_info = "nM"
quantitative_readout = 7.8

[[record]]
binder = "A[hArg]DC[Hyp]LVNPLCL[Dip]P[dD]WTC-NH2 (linker 4-11-18 via TATA, Bicyclic peptide cyclised with TATA) [BCY12859]"
reported_metric = "Ki"
unit_info = "nM"
quantitative_readout = 0.723

[[record]]
binder = "A[hArg]DC[Hyp]LVNPLCLHP[d1Nal]W[hArg]C-NH2 (linker 4-11-18 via TATA, Bicyclic peptide cyclised with TATA) [BCY13116]"
reported_metric = "Ki"
unit_info = "nM"
quantitative_readout = 1.13

[[record]]
binder = "A[hArg]DC[Hyp]LVNPLCL[1Nal]P[dD]W[hArg]C-NH2 (linker 4-11-18 via TATA, Bicyclic peptide cyclised with TATA) [BCY13117]"
reported_metric = "Ki"
unit_info = "nM"
quantitative_readout = 1.12

[[record]]
binder = "C[Hyp]LVNPLCL[1Nal]P[dD]WTC-NH2 (linker 1-8-15 via TATA, Bicyclic peptide cyclised with TATA) [BCY13119]"
reported_metric = "Ki"
unit_info = "nM"
quantitative_readout = 2.64

[[record]]
binder = "A[hArg]DC[Hyp]LVNPLCLEP[dD]WTC-NH2 (linker 4-11-18 via TATA, Bicyclic peptide cyclised with TATA) [BCY12856]"
reported_metric = "Ki"
unit_info = "nM"
quantitative_readout = 4.63


Data origin: patent US20220257784A1
